- measurement description: Inhibition of beta-lactamase NDM1 (unknown origin) expressed in Escherichia coli BL21(DE3) using cefotaxime/nitrocefin as substrate by measuring substrate hydrolysis at 100 uM by spectrophotometric analysis
Active and inactive are the calls of the source. The rule behind the calls is not given here.
measured property: inhibition

{"columns": ["smiles input", "recorded value"],
 "data": [
  ["Cc1ccccc1-c1n[nH]c(=S)n1/N=C/c1cc(O)ccc1[N+](=O)[O-]", "inactive"],
  ["Cc1ccccc1-c1n[nH]c(=S)n1/N=C/c1ccccc1O", "inactive"],
  ["O=C(O)c1ccccc1/C=N/n1c(-c2ccccc2-c2ccccc2)n[nH]c1=S", "32%"],
  ["Fc1cccc(-c2n[nH]c(=S)n2/N=C/c2ccc(OCc3ccccc3)cc2)c1", "inactive"],
  ["Oc1ccc(/C=N/n2c(-c3cccc4ccccc34)n[nH]c2=S)c(O)c1", "inactive"],
  ["Oc1ccc(/C=N/n2c(-c3ccc4ccccc4c3)n[nH]c2=S)c(O)c1", "inactive"],
  ["Cc1ccccc1-c1n[nH]c(=S)n1/N=C/c1cnc[nH]1", "inactive"],
  ["Oc1ccc(/C=N/n2c(-c3cccc(Br)c3)n[nH]c2=S)c(O)c1", "45%"]
]}

Which value of inhibition has been reported for "Cc1ccccc1-c1n[nH]c(=S)n1/N=C/c1ccc(C(=O)O)cc1" in the records?
inactive

Do the same for "S=c1[nH]nc(-c2cccc(Br)c2)n1/N=C/c1ccc(OCc2ccccc2)cc1" please
inactive
